- TARGET: T1, human interleukin 13 receptor subunit alpha 2 (IL-13RA2) (human, UniProt Q14627 27-380)
- T1 construct: whole, on cells; also called IL-13Rα2; CD213A2
- T1 sequence (looked up): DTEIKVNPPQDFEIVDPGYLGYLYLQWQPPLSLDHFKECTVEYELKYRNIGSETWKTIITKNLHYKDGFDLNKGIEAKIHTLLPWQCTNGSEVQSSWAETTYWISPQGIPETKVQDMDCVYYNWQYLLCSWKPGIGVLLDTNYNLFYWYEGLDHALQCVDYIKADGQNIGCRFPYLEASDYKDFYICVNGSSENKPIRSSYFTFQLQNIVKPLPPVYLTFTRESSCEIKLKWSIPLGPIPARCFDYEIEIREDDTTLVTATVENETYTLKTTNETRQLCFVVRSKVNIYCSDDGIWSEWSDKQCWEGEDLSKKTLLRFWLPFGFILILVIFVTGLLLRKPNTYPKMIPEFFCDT
- ASSAY_TEXT: FACS on A375 cells
ENDPOINT: Top (MFI)

INSERT INTO results (binder, quantitative_readout) VALUES
  ('54A4F7 (antibody, V domains shown, purified mouse antibody) VH: EVKLVESGGGLVKPGGSLKLSCAASGFTFSSYGMSWVRQTPEKRLEWVATISGGGSYTYYPDSVKGRFTISRDNAKNNLYLQMSSLRSEDTALYYCARRDLRSAMDHWGQGTSVTVSS VL: DIVMTQSQKFMSTSVGDRVSVTCRASQNVDINVAWYQQKPGQSPKSLIYSASYRYSGVPDRFTGSGSGTDFTLTISNVQSEDLAEYFCQQYNSYPLTFGGGTKLEIR', 268000),
  ('24G6D5 (antibody, V domains shown, purified mouse antibody) VH: QVQLQQSGPELVKPGTSVKMSCKASGYTFTSNYIHWVKQRPGQGLEWIGWIYPGDGSIKYNEKFKGKTTLTADKSSSTVYMLLSSLTSEDSAIYFCAVLRRLDYWGQGTTLTVSS VL: DIVLTQSPATLSVTPGDSVSLSCRASQSISNNLHWYQQKSHESPRLLIKYASQSISGIPSRFSGSGSGTDFTLSINSVETEDFGMYFCQQSNSWPLTFGAGTKLELK', 226000),
  ('74B5E4 (antibody, V domains shown, purified mouse antibody) VH: EVKLVESGGGLVKPGGSLRLSCAASGFTFSTYGMSWVRQTPEKRLEWVATISGGGSYTYYPDSVKGRFTISRDNAKNNLYLQMSSLRSEDTALYYCARRDLRSAMDYWGQGTSVTVSS VL: DIVMTQSQKFMSTSVGDRVSVTCKASQNVDINVAWYQQKPGQSPKALIYSASYRYSGVPDRFTGSGSGTDFTLTISNVQSEDLAEYFCQQYNTYPLTFGGGTKLEIK', 268000);
